# System: HL-60(TB) leukemia
# TEST: NCI tumour cell line growth inhibition, 48 h; in the data active means GI50 below about 0.43 µM; inactive means the rest
Give one outcome, nothing more. List: y for active, n for inactive

COMPOUND: Cc1cc2c(C(=O)NCC#N)cccc2n1-c1nc2c(c(NCc3ccccc3)n1)CCCC2
CATEGORY: y

Hi team, can someone confirm the assay call for O=C(Nc1ccc(Oc2ccc(NC(=O)Nc3ccccc3Cl)cc2)cc1)Nc1ccccc1Cl ?
n

Hi team, can someone confirm the assay call for O=c1c2cccc(F)c2sc2c(NCCCNCCO)nc3ccccc3c12 ?
n

Hi team, can someone confirm the assay call for COc1ccc(C2CC(c3ccccc3)=NN2C(=O)c2cc(OC)c(OC)c(OC)c2)cc1O (stereo not drawn) ?
y

Hi team, can someone confirm the assay call for COc1ccc(C2=NN(C=O)C(c3ccc(OS(=O)(=O)c4ccc(C)cc4)c(OC)c3)C2)cc1 (stereo not drawn) ?
n

Hi team, can someone confirm the assay call for Nc1c(C(=O)c2ccc(C#CCN3CCOCC3)cc2)cnn1-c1ccc(F)cc1 ?
n

Hi team, can someone confirm the assay call for CN1CCN(Cc2ccc(NC(=O)c3cncc(C#Cc4c(N)ncc5c(F)cccc45)c3)cc2C(F)(F)F)CC1 ?
y

Hi team, can someone confirm the assay call for C[C@@H]1CC[C@H]2[C@@H](C)C(OC/C=C/COC3O[C@@H]4O[C@@]5(C)CC[C@H]6[C@H](C)CC[C@@H]([C@H]3C)[C@@]46OO5)O[C@@H]3O[C@@]4(C)CC[C@@H]1[C@]32OO4 (stereo partly drawn) ?
y

---

# Tested on: SF-539 CNS
# TEST: NCI tumour cell line growth inhibition, 48 h
Where a SMILES comes first, the peptide text is derived from it. The star is where a group is joined. Boc = CC(C)(C)OC(=O)*
Each record here notes measured TGI.

Reference set, count: 8
MOLECULE: O=C(CC(=O)N1N=C(n2ccc3ccccc32)CC1c1ccccc1)Nc1ccc(Cl)cc1 (stereo unspecified)
QUANTITY NAME: TGI
RECORDED RESULT: > 100 µM
--
MOLECULE: O=S(=O)(O)c1ccc(Nc2ccnc3ccccc23)cc1
QUANTITY NAME: TGI
RECORDED RESULT: > 100 µM
--
MOLECULE: CC(C)(C)C(O)CC(O)(C(F)(F)F)C(F)(F)F (stereo unspecified)
QUANTITY NAME: TGI
RECORDED RESULT: > 100 µM
--
MOLECULE: CC1(CO)C(O)CCC2(C)C1C(O)CC1CC3CC12CCC3(O)CO (stereo unspecified)
QUANTITY NAME: TGI
RECORDED RESULT: > 225 µM
--
MOLECULE: C=C[C@]1(C)CC(=O)C(C(C)C=O)[C@]12C(=O)Oc1cccc(C)c1C2=O (stereo partly specified)
QUANTITY NAME: TGI
RECORDED RESULT: 31 µM
--
MOLECULE: CC(C)COC(=O)c1ccc(N=Cc2ccc(C=Nc3ccc(C(=O)OCC(C)C)cc3)cc2)cc1
QUANTITY NAME: TGI
RECORDED RESULT: > 100 µM
--
MOLECULE: CCC1(OC(=O)CNC)C(=O)OCc2c1cc1n(c2=O)Cc2cc3ccccc3nc2-1 (stereo unspecified)
QUANTITY NAME: TGI
RECORDED RESULT: < 0.0203 µM
--
MOLECULE: COC(=O)CN=C1NC(=S)N(Cc2ccc(OC)cc2)C12CCCC2
QUANTITY NAME: TGI
RECORDED RESULT: > 100 µM

Name the recorded TGI of the item C1=Nc2ccccc2Cn2nncc21 in your answer.
> 100 µM

Name the recorded TGI of the item CCNC(=O)Oc1ccc(/C(=C(\C)c2ccc(Cl)cc2)c2ccc(OCCN(CC)CC)cc2)cc1 in your answer.
3.44 µM

Name the recorded TGI of the item CC(NC(=O)C1CCCN1C(=O)CNC(=O)OC(C)(C)C)C(=O)O (stereo not drawn) (Boc-Gly-Pro-Ala-OH; configuration not given here) in your answer.
> 100 µM

Name the recorded TGI of the item CC1=NNC(=O)C1C1CC(c2c[nH]c3ccccc23)=NN(c2ccccc2)C1=O (stereo unspecified) in your answer.
> 100 µM

Name the recorded TGI of the item CS(=O)(=O)c1ccc2c(c1)C(=O)c1c-2n(CCCBr)c(=O)c2cc([N+](=O)[O-])ccc12 in your answer.
> 100 µM
